- Tested on: P. falciparum 3D7 growth, pLDH absorbance
- assay.protocol: blood-stage malaria parasite growth potency – strain 3D7, dose response (AID 2305)
property: IC50
In your response, the unit should come after the numeric value.

# example entries with known answers
[
  {
    "molecule": "CCOc1ccc(NC(=O)c2ccc(NCCCN3CC(C)CC(C)C3)c([N+](=O)[O-])c2)cc1 (stereo not given)",
    "study.target": "P. falciparum 3D7 growth, pLDH absorbance",
    "IC50": "710 nM"
  },
  {
    "molecule": "CCOc1c(Br)cc(Br)cc1CNCCCCNc1nc2ccccc2[nH]1",
    "study.target": "P. falciparum 3D7 growth, pLDH absorbance",
    "IC50": "390 nM"
  },
  {
    "molecule": "Cc1ccc2c(O)c([N+](=O)[O-])c(=O)[nH]c2c1",
    "study.target": "P. falciparum 3D7 growth, pLDH absorbance",
    "IC50": "420 nM"
  }
]

Query :: Param item = Cc1cc(N[C@@H](Cc2ccccc2)C(=O)NCCc2ccccc2)nc(NCC2CCCCC2)n1 ; retrieve measured IC50.
Result :: 920 nM

Query :: Would you kindly share the measured IC50 for c1ccc(Oc2ccc(Nc3nc(NCCc4cnc[nH]4)nc(NC4CCCC4)n3)cc2)cc1 ?
Result :: 1030 nM

Query :: Report IC50 for NCCNC(=O)c1ccc(-c2cnc3[nH]cc(-c4ccc(C(N)=O)cc4)c3c2)cc1 please.
Result :: 170 nM

Query :: Quick one: IC50 for CCCn1c(Sc2ccc(C#N)c([N+](=O)[O-])c2)nnc1-c1ccc(N(C)C)cc1 ?
Result :: 130 nM

Query :: Please report the recorded IC50 for Cc1cccc(Oc2cccc3[nH]nc(N)c23)c1 .
Result :: 1040 nM

Query :: Quick check: IC50 of CC(OC(=O)c1ccc(C(=O)NCC2CC2)cc1)C(C)(C)C (stereo not given) ?
Result :: 790 nM
